test_protocol: yeast display, Sf9 membrane polyspecificity reagent, FACS + sequencing; frameworks hold sequencing errors
endpoint: polyreactivity (PSR sort gate)

Sample answers from the record:
sequence_input: QVQLEESGGGLVQAGGSLRLSCAASGTFVTYMGWYRQAPGKERELVAAIRNGGSTNYADSVKGRFTISRDNAKNTVYLQMNSLKPEDTAVYYCAARVTYSRGYRGGSRTKYDYWGQGTQVTVSS
polyreactivity (PSR sort gate): low polyreactivity
--
sequence_input: QVQLVESGGGLDQAAGSLRLSCAASGSNFQWYTMGWYRQAPGKERELVAAITWSGASTYYADSVKGRFTISRDNAKNTVYLQMNSLKPEDTAVYYCAADWRRGTGFYYWGQGTQVTVSS
polyreactivity (PSR sort gate): high polyreactivity
--
sequence_input: QDQLVDSRGGLVQAGGSLRLSCAASGLIFRSYAMGWSRQAPGKERELVAAITDLFWSTYYADSVKGRFTISRDYAKNTVYLQMNSLKPEDNAVFYCARDDWVYTNVEMDYWGQGTQVTVSS
polyreactivity (PSR sort gate): high polyreactivity
--
sequence_input: QVQLVESGGGLVQAGGSLRLSCAASGLTFVYNAMGWYRQAPGKERELVATISRGGSTYYADSVKGRFTISLDNAMNTVYLQMTSLKPEDTAVYYCNDDGYYDYDYGYWGQGTQVTVSS
polyreactivity (PSR sort gate): low polyreactivity
--
sequence_input: QVQLVESGGGLVQAGGSLRLSCAASGRIFAYYAMGWYRQAPGKERELVAAINRSGVRTYYADSVKGRFTISRDNAMNTVYFQINSLKPEDTAVYYCAAYVVGGEGDYWGQGTQVTVSS
polyreactivity (PSR sort gate): high polyreactivity
--
sequence_input: QVQLVESGGGLVQAGGSLRLTCAASGFIFDTYAMGWYRQAPGKERELVAAISWTGTDTYYADSVKGRFTISRDNAKNTVYLQMNSLKPEDTAVYYCAARSRYKYSPSGDYWGQGTQVTVSS
polyreactivity (PSR sort gate): high polyreactivity
--
sequence_input: QVQLVESGGGLVQAGGSLRLSCPASGFTFYVNAMGWSRQAPGKERELVAGITTSDGSTYYADSVKGRFTISRDNAKNNVYLQMNSLKPEDTAVYYCAAAITWYQLYQRSGGDYWGQGTQVTVSS
polyreactivity (PSR sort gate): low polyreactivity
--
sequence_input: QVQLVESGGGLVQAGGSLRLSCAASGSTLWDYAMGWYRQAPGKERELVAAITQDGGSTYYADSVKGRFTISRDNAKNTVYLQMNSLKPEDTAVYYCAAEYWYDGGGYWGQGTQVTVSS
polyreactivity (PSR sort gate): low polyreactivity

Query string: For the sequence shown here, `QVQLVDSGGGLVQAGGSLRLSCAASGRIFPYYTMGCYRQAPGKETEFVAAISSSSVSTYYADSVKGRFTISRDNAKNTVYLQMNSLKAEDTAVYYCAAKRVGYHIGYVYPYGYWGQGTQVTVSS` , give the reported polyreactivity (PSR sort gate).
Result string: high polyreactivity

Query string: For the sequence shown here, `QVQLVESGGGLVQAGGSLRFSCAASGSTFGFNAMGWYRQAPGKERELLPLFWSGGSTYYADSVNGRFTISRDNAKNSVYLQMNSLKPDDTAVYYCNKDSTPITRYDYWGQGTQVTVSS` , give the reported polyreactivity (PSR sort gate).
Result string: low polyreactivity

Query string: For the sequence shown here, `QVQLVESGGGLVQAGGSLRLSCAASGSTFGGYVMGWYRQAPGKERELVATITQGDGSTYYADSVKGRFTISRDNAKNTVYLQMNSLKPEDTAVYYCAAYGWYDLYYWEYDYWGQGTQVTVSS` , give the reported polyreactivity (PSR sort gate).
Result string: high polyreactivity
